Data provenance is a melting point compilation (Tetko et al.; mined from patent text by program, amines drawn as free bases though some values may be those of a salt).

Give melting point for every item shown.

Q: Report melting point for CCCCc1c(O)c2nccnc2n(-c2ccccc2)c1=O please.
A: 183 to 185 °C

Q: Entry CCOC(=O)C1=C(C)NC(C)=C(C(=O)OCC)C1c1csc2cc([N+](=O)[O-])ccc12 : reported melting point = ?
A: 191 to 194 °C

Q: Need melting point of CCOC(=O)c1cn(-c2nc(NC(C)C)c(F)cc2F)c2c(Cl)c(F)c(F)cc2c1=O , thanks.
A: 206 to 209 °C

Q: Would you mind telling me what melting point value was observed for CN1Cc2nc[nH]c2C[C@@H]1C(=O)c1ccccc1 ?
A: 98 °C

Q: Quick one: melting point for CCCS(=O)(=O)NCC(O)(Cn1cncn1)c1ccc(Cl)cc1Cl (stereo not drawn) ?
A: 128 to 129 °C

Q: Returns the measured melting point for the input compound. Input: C[C@H]1[C@H](OS(C)(=O)=O)CN1C(c1ccccc1)c1ccccc1 (relative stereo)
A: 68 to 71 °C

Q: Can you look up the measured melting point of COC(=O)c1ccc(Cl)cc1C(=O)c1ccccc1F for me?
A: 115 to 116 °C

Q: Please report the recorded melting point for OCC1OC(n2cnc3c(NCC4Cc5cccc6cccc4c56)ncnc32)C(O)C1O (stereo not drawn) .
A: 173 to 175 °C

Q: Any idea what its melting point is? The compound is Nc1cc(=O)n(CC2CCCCC2)c(=O)n1CC1CCCCC1
A: 138 to 141 °C

Q: Report melting point for O=C(Nc1ccnnc1)Nc1cc(F)cc(F)c1 please.
A: 272 to 273 °C

Q: Please report the recorded melting point for CC(C)(CO)NS(=O)(=O)c1ccc(Cl)c(NC(=O)c2cnn3c(C(F)(F)F)cc(-c4ccc(C(F)(F)F)cc4)nc23)c1 .
A: 246 °C

Q: Entry CC1c2cc(C(C)(C)C)cc(C(C)(C)C)c2OP(OCCNC(C)(C)C)Oc2c1cc(C(C)(C)C)cc2C(C)(C)C (stereo not drawn) has what melting point?
A: 174 to 175 °C

Q: Can you share its melting point? I mean this compound: COc1ccc(CN(CCN(C)CCCCCCNC(=O)NCCSCc2csc(NC(=N)N)n2)c2ccccn2)cc1
A: 60 °C
